Source of measurements: ChEMBL document CHEMBL4680335

Test system: HepG2
assaySummary: Antiproliferative activity against human HepG2 cells assessed as reduction in cell growth
Type: functional, cell-based
assayReadout: log10(IC50) (log10 of the value in µM)
Please interpret these as log10 of IC50 where IC50 is in µM.

C/C(=N\Nc1nc(-c2ccc(Br)cc2)cs1)c1cc2ccccc2o1 | 1.44
COc1ccc(/N=N/C(C=O)=C(/O)c2cc3ccccc3o2)cc1 | 1.62
C/C(=N\Nc1nc(C)cs1)c1cc2ccccc2o1 | 0.60
C/C(=N\Nc1nc(-c2cc3ccccc3o2)cs1)c1cc2ccccc2o1 | 1.33

So for `C/C(=N\Nc1nc(-c2ccc(C)cc2)cs1)c1cc2ccccc2o1` , the logged log10(IC50) turned out to be 1.15

So for `CN1CCN(C(=S)Cc2cc3ccccc3o2)CC1` , the logged log10(IC50) turned out to be 1.81

So for `COc1ccc(-c2csc(N/N=C(\C)c3cc4ccccc4o3)n2)cc1` , the logged log10(IC50) turned out to be 1.20
